Property: kon; scope: individual binders
system: T1, V domain of human CD33 (human, UniProt P20138 18-139, limits assumed)
T1 construct: recombinant, fully glycosylated V domain; also called Human CD33 V domain
assay_explanation: SPR, Fab captured, 37C;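 note: Anti-CD33 Fabs captured on anti-Fab chip, soluble monomeric CD33 or its domains flowed over at several concentrations, double-referenced data fitted 1:1, Kd taken as koff/kon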
Just the number in M⁻¹ s⁻¹, nothing appended.

ADI-11835 Fab (Fab, V domains shown, Fab fragment; also called Ab10; I35) VH: QLQLQESGPGLVKPSETLSLTCTVSGGSISSTDYYWGWIRQPPGKGLEWIGSIGYSGTYYNPSLKSRVTISVDTSKNQFSLKLSSVTAADTAVYYCARETAHDVHGMDVWGQGTTVTVSS VL: EIVLTQSPATLSLSPGERATLSCRASHSVYSYLAWYQQKPGQAPRLLIYDASNRATGIPARFSGSGSGTDFTLTISSLEPEDFAVYYCQQYDNLPTFGGGTKVEIK	7.6e+06

Request: What does the data say about its kon? Entry: ADI-10158 Fab (Fab, V domains shown, Fab fragment; also called Ab14) VH: QVQLQQWGAGLLKPSETLSLTCAVYGGSFSGYYWSWIRQPPGKGLEWIGEIDHSGSTNYNPSLKSRVTISVDTSKNQFSLKLSSVTAADTAVYYCARQGIHGLRYFDLWGRGTLVTVSS VL: EIVMTQSPATLSLSPGERATLSCRASQSVSSYLAWYQQKPGQAPRLLIYDASNRATGIPARFSGSGSGTDFTLTISSLEPEDFAVYYCQQDHNFPYTFGGGTKVEIK
Response: 1.04e+06

Request: Now the same for ADI-11776 Fab (Fab, V domains shown, Fab fragment; also called Ab3; H76) VH: EVQLLESGGGLVQPGGSLRLSCAASGFTFSKYTMSWVRQAPGKGLEWVSAIVGSGESTYFADSVKGRFTISRDNSKNTLYLQMNSLRAEDTAVYYCAREGGPYYDSSGYFVYYGMDVWGQGTTVTVSS VL: DIQMTQSPSTLSASVGDRVTITCRASQSISSWLAWYQQKPGKAPKLLIYKASSLESGVPSRFSGSGSGTEFTLTISSLQPDDFATYYCQQYDDLPTFGGGTKVEIK
Response: 4.52e+06
